Below are compounds with their Kd as measured on BCL6 BTB domain (Homo sapiens (Human), UniProt P41182).
One number for each entry, in nM.

In the examples that follow, each entry is paired with its recorded Kd.
>>> df
                                   compound                          target_or_system  value_unit  value_observed
0  Cn1cnc2c(c(-c3cc(Cl)c(O)c(C(N)=O)c3)cn2CC(=O)Nc2cc(N3CCC4(CCOC4)C3)ncc2Cl)c1=O (stereo not drawn)  BCL6 BTB domain (Homo sapiens (Human), UniProt P41182)          nM              12
1  Cn1cnc2c(c(-c3cc(Cl)c(O)c(C(N)=O)c3)cn2CC(=O)Nc2cc(N3CC4CCC3C4)ncc2Cl)c1=O (stereo not drawn)  BCL6 BTB domain (Homo sapiens (Human), UniProt P41182)          nM              39
2  Cn1cnc2c(c(-c3cc(C(N)=O)c(O)c(F)c3F)cn2CC(=O)Nc2cc(N3CCOCC3)ncc2F)c1=O  BCL6 BTB domain (Homo sapiens (Human), UniProt P41182)          nM             106
3  C[C@@H]1CN(c2cc(NC(=O)Cn3cc(-c4cc(C(N)=O)c(O)c(F)c4F)c4c(=O)n(C)cnc43)c(Cl)cn2)C[C@H](C)O1  BCL6 BTB domain (Homo sapiens (Human), UniProt P41182)          nM            77.7
4  Cn1cnc2c(c(-c3cc(Cl)c(O)c(C(N)=O)c3)cn2CC(=O)Nc2cc(N3CCOC(C)(C)C3)ncc2Cl)c1=O  BCL6 BTB domain (Homo sapiens (Human), UniProt P41182)          nM            19.6

Ask: Please look at this compound and report its Kd: CN(C)CC1COCCN1c1cc(NC(=O)Cn2cc(-c3cc(Cl)c(O)c(C(N)=O)c3)c3c(=O)n(C)cnc32)c(Cl)cn1 (stereo not drawn)
Result: 39.4
